Experiment: Proliferation of exponentially growing Huh-5-2 cells (MTS method)
Details: human, CC50, concentration required to inhibit the proliferation of exponentially growing Huh-5-2 cells by 50%; Table 2
// classify: if (CC50 at 72 h < 80 µg/mL) y else n

[
  {
    "COMPOUND": "COCCN1C(=O)c2ccccc2C(C(=O)Nc2ccc(OC3CCOCC3)cc2)C1c1cccs1 (stereo not drawn) [C218]",
    "GROUP_LABEL": "n"
  }
]

Just wondering, is CC50 at 72 h of CCOCCN1C(=O)c2ccccc2C(C(=O)Nc2cccc(OC)c2)C1c1cccs1 (stereo not drawn) [C65] below 80 µg/mL?
n

Just wondering, is CC50 at 72 h of COCCN1C(=O)c2ccccc2C(C(=O)Nc2ccc(Cn3ccnc3)cc2)C1c1cccs1 (stereo not drawn) [C215] below 80 µg/mL?
y

Just wondering, is CC50 at 72 h of COCCN1C(=O)c2ccccc2C(C(=O)Nc2ccc(-c3nnc(C)o3)cc2)C1c1cccs1 (stereo not drawn) [C205] below 80 µg/mL?
y

Just wondering, is CC50 at 72 h of COCCN1C(=O)c2ccccc2C(C(=O)Nc2cccc(OC)c2)C1c1ccc(Cl)s1 (stereo not drawn) [C135] below 80 µg/mL?
y

Just wondering, is CC50 at 72 h of COCCN1C(=O)c2ccccc2C(C(=O)Nc2cccc(CO)c2)C1c1cccs1 (stereo not drawn) [C166] below 80 µg/mL?
y

Just wondering, is CC50 at 72 h of COCCN1C(=O)c2ccccc2C(C(=O)Nc2ccc3c(ccn3C)c2)C1c1cccs1 (stereo not drawn) [C123] below 80 µg/mL?
n

Just wondering, is CC50 at 72 h of COCCN1C(=O)c2ccccc2C(C(=O)Nc2ccc(F)c(F)c2)C1c1cccs1 (stereo not drawn) [C88] below 80 µg/mL?
y

Just wondering, is CC50 at 72 h of COCCN1C(=O)c2ccccc2C(C(=O)Nc2cc(OC)cc(OC)c2)C1c1cccs1 (stereo not drawn) [C130] below 80 µg/mL?
n

Just wondering, is CC50 at 72 h of COCCN1C(=O)c2ccccc2C(C(=O)Nc2ccc(-c3ccn(C)n3)cc2)C1c1cccs1 (stereo not drawn) [C203] below 80 µg/mL?
y

Just wondering, is CC50 at 72 h of C#CC1C(C(=O)Nc2ccc(-n3cccc3)cc2)c2ccccc2C(=O)N1CCOC (stereo not drawn) [C152] below 80 µg/mL?
y

Just wondering, is CC50 at 72 h of COCCN1C(=O)c2cccc(OC)c2C(C(=O)Nc2cccc(OC)c2)C1c1cccs1 (stereo not drawn) [C148] below 80 µg/mL?
y

Just wondering, is CC50 at 72 h of COCCN1C(=O)c2ccccc2C(C(=O)Nc2onc(C)c2C#N)C1c1cccs1 (stereo not drawn) [C155] below 80 µg/mL?
y
